pIC50 values for the compounds below.
System: PC-3
Assay: Prostate cancer cell proliferation assay
Format: cell-based
Conditions: Homo sapiens; PC-3, 72 hours; read-out: IC50 against prostate cancer cell lines
pIC50: −log10 of the molar value.
value-type: pIC50

- compound: "COc1cc2cc(C(=O)c3ccc4[nH]ccc4c3)[nH]c2cc1OC"
  study-system: "PC-3"
  value-type: "pIC50"
  observed: 7.77
- compound: "COc1ccc2[nH]c(C(=O)c3ccc4[nH]ncc4c3)cc2c1"
  study-system: "PC-3"
  value-type: "pIC50"
  observed: 8.22
- compound: "COc1ccc2[nH]c(C(=O)c3ccc4[nH]ncc4c3)c(Cl)c2c1"
  study-system: "PC-3"
  value-type: "pIC50"
  observed: 7.70
- compound: "COc1ccc2[nH]c(C(=O)c3ccc4[nH]nc(C)c4c3)cc2c1"
  study-system: "PC-3"
  value-type: "pIC50"
  observed: 7.96
- compound: "CC(=O)O[C@@]12CO[C@@H]1C[C@H](O)[C@@]1(C)C(=O)[C@H](O)C3=C(C)[C@@H](OC(=O)[C@H](O)[C@@H](NC(=O)OC(C)(C)C)c4ccccc4)C[C@@](O)([C@@H](OC(=O)c4ccccc4)[C@H]21)C3(C)C [Docetaxel, reference compound]"
  study-system: "PC-3"
  value-type: "pIC50"
  observed: 7.02

###

Test system: RXF393
Assay: Activity against cancer cell lines
Format: cell-based
Details: Homo sapiens, RXF 393

- molecule: "COc1cccc2c1C(=O)c1c(O)c3c(c(O)c1C2=O)C[C@@](O)(C(=O)CO)C[C@@H]3O[C@H]1C[C@H](N)[C@H](O)[C@H](C)O1 [Doxorubicin, reference compound]"
  study-system: "RXF393"
  IC50, nM: 1000
- molecule: "COc1ccc2[nH]c(C(=O)c3ccc4[nH]ccc4c3)cc2c1 [Cmpd 1]"
  study-system: "RXF393"
  IC50, nM: 38
- molecule: "COc1ccc2[nH]c(C(=NO)c3ccc4[nH]ccc4c3)cc2c1 [Cmpd 37]"
  study-system: "RXF393"
  IC50, nM: 140

###

Experiment: In vivo pharmacokinetic study, oral formulations
Settings: mouse, plasma, 60 mg/kg, mice, oral 60 mg/kg in 0.5% HPC, 4 h
value-type: concentration at 4 h

- compound-structure-string: "COc1ccc2[nH]c(C(=O)c3ccc4[nH]nc(C)c4c3)cc2c1"
  observed: "33 ng/mL"

###

Tested on: LNCaP
Assay: Prostate cancer cell proliferation assay
Format: cell-based
Conditions: Homo sapiens, 72 hours, read-out: IC50 against prostate cancer cell lines
IC50 values for the molecules below.

- molecule: "COc1ccc2[nH]c(C(=O)c3ccc4[nH]ncc4c3)cc2c1 [Cmpd 17]"
  unit-label: "nM"
  IC50: 9
- molecule: "COc1ccc2[nH]c(C(=O)c3ccc4[nH]ncc4c3)c(Cl)c2c1 [Cmpd 23]"
  unit-label: "nM"
  IC50: 28
- molecule: "COc1cc2cc(C(=O)c3ccc4[nH]ccc4c3)[nH]c2cc1OC [Cmpd 15]"
  unit-label: "nM"
  IC50: 21
- molecule: "CC(=O)O[C@@]12CO[C@@H]1C[C@H](O)[C@@]1(C)C(=O)[C@H](O)C3=C(C)[C@@H](OC(=O)[C@H](O)[C@@H](NC(=O)OC(C)(C)C)c4ccccc4)C[C@@](O)([C@@H](OC(=O)c4ccccc4)[C@H]21)C3(C)C [Docetaxel, reference compound]"
  unit-label: "nM"
  IC50: 31
- molecule: "COc1ccc2[nH]c(C(=O)c3ccc4[nH]nc(C)c4c3)cc2c1 [Cmpd 18]"
  unit-label: "nM"
  IC50: 16

###

System: OVCAR8
Assay: Activity against cancer cell lines
Type: cell-based
Conditions: Homo sapiens, OVCAR-8, OVCAR8
value-type: IC50 (nM)

- compound-structure-string: "COc1ccc2[nH]c(C(=O)c3ccc4[nH]ccc4c3)cc2c1"
  value-type: "IC50"
  observed: 67

###

Test: In vivo pharmacokinetic study, oral formulations
Conditions: mouse, plasma, 60 mg/kg, mice, oral 60 mg/kg in PTTW, 4 h

- compound: "COc1ccc2[nH]c(C(=O)c3ccc4[nH]nc(C)c4c3)cc2c1 [Cmpd 18]"
  concentration at 4 h [ng/mL]: 75.5

###

Test system: M14
Experiment: Activity against cancer cell lines
Type: cell-based
Conditions: Homo sapiens
pIC50: −log10 of the molar value.
value-type: pIC50

- compound: "COc1ccc2[nH]c(C(=O)c3ccc4[nH]ccc4c3)cc2c1 [Cmpd 1]"
  study-system: "M14"
  value-type: "pIC50"
  observed: 7.42
- compound: "COc1cccc2c1C(=O)c1c(O)c3c(c(O)c1C2=O)C[C@@](O)(C(=O)CO)C[C@@H]3O[C@H]1C[C@H](N)[C@H](O)[C@H](C)O1 [Doxorubicin, reference compound]"
  study-system: "M14"
  value-type: "pIC50"
  observed: 6.09
- compound: "COc1ccc2[nH]c(C(=NO)c3ccc4[nH]ccc4c3)cc2c1 [Cmpd 37]"
  study-system: "M14"
  value-type: "pIC50"
  observed: 6.96

###

Experiment: In vivo pharmacokinetic study, oral formulations
Settings: mouse, plasma, 60 mg/kg, mice, oral 60 mg/kg in PTTW, 8 h
value-type: concentration at 8 h (ng/mL)

- compound-structure-string: "COc1ccc2[nH]c(C(=O)c3ccc4[nH]nc(C)c4c3)cc2c1"
  observed: 21.7

###

Assay: In vivo pharmacokinetic study, oral formulations
Settings: mouse, plasma, 60 mg/kg, mice, oral 60 mg/kg in PTTW, 0.5 h
value-type: concentration at 0.5 h (ng/mL)

- compound: "COc1ccc2[nH]c(C(=O)c3ccc4[nH]nc(C)c4c3)cc2c1 [Cmpd 18]"
  unit-label: "ng/mL"
  observed: 798

###

Test system: ACHN
Assay: Activity against cancer cell lines
Type: cell-based
Settings: Homo sapiens
pIC50: −log10 of the molar value.
value-type: pIC50

- molecule: "COc1ccc2[nH]c(C(=NO)c3ccc4[nH]ccc4c3)cc2c1"
  observed: 6.12
- molecule: "COc1ccc2[nH]c(C(=O)c3ccc4[nH]ccc4c3)cc2c1"
  observed: 8.24
- molecule: "COc1cccc2c1C(=O)c1c(O)c3c(c(O)c1C2=O)C[C@@](O)(C(=O)CO)C[C@@H]3O[C@H]1C[C@H](N)[C@H](O)[C@H](C)O1 [Doxorubicin, reference compound]"
  observed: 6.27

###

Tested on: MCF-7
Assay: Breast cancer cell line growth inhibition
Format: cell-based
Details: Homo sapiens, MCF7; MCF-7, ER (+); read-out: IC50 against breast cancer cell lines
pIC50: −log10 of the molar value.
pIC50 values for the molecules below.
value-type: pIC50

- molecule: "COc1ccc2[nH]c(C(=O)c3ccc4[nH]nc(C)c4c3)cc2c1 [Cmpd 18]"
  study-system: "MCF-7"
  observed: 7.08
- molecule: "COc1ccc2[nH]c(C(=O)c3ccc4[nH]ncc4c3)cc2c1 [Cmpd 17]"
  study-system: "MCF-7"
  observed: 7.28
- molecule: "CC(=O)O[C@H]1C(=O)[C@@]2(C)[C@H]([C@H](OC(=O)c3ccccc3)[C@]3(O)C[C@H](OC(=O)[C@H](O)[C@@H](NC(=O)c4ccccc4)c4ccccc4)C(C)=C1C3(C)C)[C@]1(OC(C)=O)CO[C@@H]1C[C@@H]2O [Paclitaxel, reference compound]"
  study-system: "MCF-7"
  observed: 6.81
- molecule: "COc1ccc2[nH]c(C(=O)c3ccc4[nH]ncc4c3)c(Cl)c2c1 [Cmpd 23]"
  study-system: "MCF-7"
  observed: 6.94
- molecule: "COc1cc2cc(C(=O)c3ccc4[nH]ccc4c3)[nH]c2cc1OC [Cmpd 15]"
  study-system: "MCF-7"
  observed: 6.91

###

System: SKMEL5
Assay: Activity against cancer cell lines
Assay type: cell-based
Conditions: Homo sapiens, SK-MEL-5

- compound: "COc1ccc2[nH]c(C(=O)c3ccc4[nH]ccc4c3)cc2c1"
  IC50 (nM): 33
- compound: "COc1cccc2c1C(=O)c1c(O)c3c(c(O)c1C2=O)C[C@@](O)(C(=O)CO)C[C@@H]3O[C@H]1C[C@H](N)[C@H](O)[C@H](C)O1 [Doxorubicin, reference compound]"
  IC50 (nM): 390
- compound: "COc1ccc2[nH]c(C(=NO)c3ccc4[nH]ccc4c3)cc2c1"
  IC50 (nM): 210

###

pIC50 values for the molecules below.
Tested on: UO31
Experiment: Activity against cancer cell lines
Assay type: cell-based
Conditions: Homo sapiens, UO-31
pIC50: −log10 of the molar value.

- molecule: "COc1ccc2[nH]c(C(=NO)c3ccc4[nH]ccc4c3)cc2c1 [Cmpd 37]"
  pIC50: 6.16
- molecule: "COc1cccc2c1C(=O)c1c(O)c3c(c(O)c1C2=O)C[C@@](O)(C(=O)CO)C[C@@H]3O[C@H]1C[C@H](N)[C@H](O)[C@H](C)O1 [Doxorubicin, reference compound]"
  pIC50: 5.60
- molecule: "COc1ccc2[nH]c(C(=O)c3ccc4[nH]ccc4c3)cc2c1 [Cmpd 1]"
  pIC50: 7.18
